The following molecules are listed with their measured TGI values.
# Tested on: MDA-MB-435
# protocol summary: NCI tumour cell line growth inhibition, 48 h
quantity kind: TGI

{"molecule": "Nc1ccn([C@H]2CO[C@@H](CO)O2)c(=O)n1", "test value": "> 100 µM"}
{"molecule": "CC1=Nc2nc3ccccc3n2C(C)(C)C1", "test value": "> 100 µM"}
{"molecule": "OC(c1ccsc1)c1cc2ccccc2s1 (stereo not given)", "test value": "> 10 µM"}
{"molecule": "C/C(=N\\Nc1ccc2ccccc2n1)c1ccccc1O", "test value": "> 100 µM"}
{"molecule": "COc1ccc(N2C(=O)C3c4[nH]c5ccccc5c4C4CCCCCCCC4C3C2=O)cc1 (stereo not given)", "test value": "> 10 µM"}
{"molecule": "CN(C)C(=S)N/N=C\\C(=N/NC(=S)N(C)C)c1ccccc1", "test value": "> 100 µM"}
{"molecule": "Brc1ccccc1/C=C\\C1(c2ccccc2)OCCO1", "test value": "24.6 µM"}
{"molecule": "CC1=NN(C(=O)CC(=O)Nc2ccccc2C)C(=O)C1N=Nc1ccc(S(=O)(=O)c2ccc(N=NC3C(=O)N(C(=O)CC(=O)Nc4ccccc4C)N=C3C)cc2)cc1 (stereo not given)", "test value": "> 100 µM"}
{"molecule": "NCCCCC(N)C(=O)N1CCN(c2nc(N3CCCC3)c3nc(Cl)c(NCc4ccccc4)nc3n2)CC1 (stereo not given)", "test value": "46.6 µM"}
{"molecule": "CCCCCCCCCCCCOC1C(CNC(=O)C2OC3OC(C)(C)OC3C2NC(=O)CN2CCN(c3ccccn3)CC2)OC2OC(C)(C)OC21 (stereo not given)", "test value": "3.36 µM"}

---

# Tested on: SR leukemia
# protocol summary: NCI tumour cell line growth inhibition, 48 h

{"molecule": "COC1OCC(OS(=O)(=O)c2ccc(C)cc2)C(OC(=O)c2ccccc2)C1OC(=O)c1ccccc1 (stereo not given)", "result operator": ">", "TGI (µM)": 100}
{"molecule": "COc1ccc(-c2nc(N(C)C)c3ccccc3n2)cc1", "result operator": "=", "TGI (µM)": 29.1}
{"molecule": "COc1ccc(/C=C/C(=O)c2nc3ccccc3[nH]2)cc1", "result operator": ">", "TGI (µM)": 27.1}
{"molecule": "O=C(N1CCOCC1)C1(c2ccccc2)CCNCC1", "result operator": ">", "TGI (µM)": 100}
{"molecule": "C[C@@H]1CCC2[C@@H](C)[C@H](O[C@H]3O[C@@H]4O[C@@]5(C)CCC6[C@H](C)CCC([C@H]3C)[C@]64OO5)O[C@@H]3O[C@@]4(C)CCC1[C@@]23OO4 (stereo not given in full)", "result operator": "=", "TGI (µM)": 1.28}

---

# Test system: IGROV1 ovarian
# protocol summary: NCI tumour cell line growth inhibition, 48 h

{"compound": "O=C(O)c1cc(N/C=C2\\C(=O)c3ccccc3OC2O)ccc1O (stereo not given)", "GI50": "20.6 µg/mL"}
{"compound": "O=C(/C=C/c1ccccn1)c1ccccc1O", "GI50": "1.76 µM"}
{"compound": "C[As](C)Sc1ccnc(S[As](C)C)n1", "GI50": "4.73 µM"}
{"compound": "O=C1Nc2ccccc2C1(c1ccc(O)c(F)c1)c1ccc(O)c(F)c1", "GI50": "3.19 µM"}
{"compound": "Nc1ncnc2c1c(-c1cccc(OCc3ccccc3)c1)cn2C1CC(CN2CCCC2)C1 (stereo not given)", "GI50": "2.92 µM"}
{"compound": "CCCN(CCC)c1ccc(C=O)cc1", "GI50": "> 84.4 µM"}
{"compound": "COC1OCC(OS(=O)(=O)c2ccc(C)cc2)C(OC(=O)c2ccccc2)C1OC(=O)c1ccccc1 (stereo not given)", "GI50": "6.4 µM"}
{"compound": "NC(=O)c1nnn(Cc2cc(Cl)c(C(=O)c3ccc(Cl)cc3)c(Cl)c2)c1N", "GI50": "> 9.09 µM"}
{"compound": "CC(C)(C)C(=O)OCOP(=O)(OCOC(=O)C(C)(C)C)C1CCCN(OC(=O)c2ccccc2)C1=O (stereo not given)", "GI50": "0.657 µM"}
{"compound": "O=C(N/N=C/c1coc2ccc(Cl)cc2c1=O)c1ccncc1", "GI50": "24.8 µM"}

---

# Tested on: A498 renal
# protocol summary: NCI tumour cell line growth inhibition, 48 h; in the data active = GI50 below about 0.43 µM; inactive = the rest
Possible outcomes: active, inactive

{"molecule": "O=C(/C=C/c1ccccn1)c1ccccc1O", "qualitative label": "inactive"}
{"molecule": "CCOC(=O)c1c[nH]c2c(OCc3ccccc3)c3ccccc3c(O)c2c1=O", "qualitative label": "inactive"}
{"molecule": "O=C(O)c1cc(N/C=C2\\C(=O)c3ccccc3OC2O)ccc1O (stereo not given)", "qualitative label": "inactive"}
{"molecule": "CN(C)CCCNC(=O)c1cc(NC(=O)CCNC(=O)c2ccc3c(c2)C(=O)c2ccccc2C3=O)cn1C", "qualitative label": "inactive"}
{"molecule": "O=C1Nc2cc(Cl)ccc2Oc2cc(Oc3ccccc3)ccc21", "qualitative label": "inactive"}
{"molecule": "C(=N/Nc1ncnc2nc[nH]c12)/c1ccccn1", "qualitative label": "inactive"}
{"molecule": "CCCCCCCCCCCCOC1C(CNC(=O)C2OC3OC(C)(C)OC3C2NC(=O)CN2CCN(c3ccccn3)CC2)OC2OC(C)(C)OC21 (stereo not given)", "qualitative label": "inactive"}
{"molecule": "Fc1ccc(-c2ncn(C3CCNCC3)c2-c2ccnc(Oc3ccccc3)n2)cc1", "qualitative label": "inactive"}
{"molecule": "C[As](C)Sc1ccnc(S[As](C)C)n1", "qualitative label": "inactive"}
{"molecule": "COc1ccc(Nc2c3c4c(cccc4[nH]c2=O)C(=O)c2ccccc2-3)cc1", "qualitative label": "active"}

---

# System: SF-539 CNS
# protocol summary: NCI tumour cell line growth inhibition, 48 h
The following molecules are listed with their measured TGI values.
quantity kind: TGI

{"molecule": "CC/C(Cl)=N\\OC(=O)Nc1ccccc1OC(F)(F)F", "target or system": "SF-539 CNS", "test value": "31 µM"}
{"molecule": "CCOC(=O)c1ccc2c(c1)[n+](=O)c(C(=O)c1ccc3ccccc3c1)c(C(F)(F)F)n2[O-]", "target or system": "SF-539 CNS", "test value": "2.9 µM"}
{"molecule": "CC(C)c1ccc2c(N=Nc3ccc(S(N)(=O)=O)cc3)c(O)[nH]c2c1", "target or system": "SF-539 CNS", "test value": "> 25 µM"}
{"molecule": "O=C1OC(c2ccccc2)C2CC3CC4(CCC3CN12)OCCO4 (stereo unspecified)", "target or system": "SF-539 CNS", "test value": "> 100 µM"}
{"molecule": "C=CC1(c2ccc3ccccc3c2)OCC(CC)(CC)CO1", "target or system": "SF-539 CNS", "test value": "33.5 µM"}
{"molecule": "CCCN(CCC)c1ccc(C=O)cc1", "target or system": "SF-539 CNS", "test value": "> 100 µM"}
{"molecule": "COc1cc(C2c3cc4c(cc3[C@H](NC(=O)c3cccs3)C3COC(=O)[C@H]23)OCO4)cc(OC)c1OC (stereo partly specified)", "target or system": "SF-539 CNS", "test value": "< 0.0141 µM"}
{"molecule": "O=c1cc2n(c(=O)[nH]1)C1OC(C(O)C1O)[C@H]2CCO (stereo partly specified)", "target or system": "SF-539 CNS", "test value": "> 100 µM"}
{"molecule": "COc1nc(/C=N/NC(N)=S)nc(OC)n1", "target or system": "SF-539 CNS", "test value": "> 100 µM"}
{"molecule": "COC(=O)[C@@]12CC[C@]1(C(=O)OC)C1C(C)=CC(=O)O[C@@]12C (stereo partly specified)", "target or system": "SF-539 CNS", "test value": "> 100 µM"}
{"molecule": "O=C(CSc1nc2ccc([N+](=O)[O-])cc2[nH]1)Nc1cccc(Cl)c1", "target or system": "SF-539 CNS", "test value": "11.7 µM"}

---

# Test system: MALME-3M melanoma
# protocol summary: NCI tumour cell line growth inhibition, 48 h
The following compounds are listed with their measured log10(TGI) values.
quantity kind: log10(TGI) (log10 of the value in µM)

{"compound": "COC(=O)CSc1ccccc1", "log10(TGI)": 1.78}
{"compound": "COc1ccc2nc3cccc([N+](=O)[O-])c3c(NCCN(CCO)CCO)c2c1", "log10(TGI)": -1.39}
{"compound": "CC(=O)Nc1ccc2c3c(cc(O)c2c1)N(C(=O)CCCC(=O)Nc1ccc2c4c(cc(O)c2c1)N(C(=O)OC(C)(C)C)CC4CCl)CC3CCl (stereo not given)", "log10(TGI)": 0.44}
{"compound": "COc1cc(CNc2nc3ccccc3nc2-c2cccs2)cc(OC)c1OC", "log10(TGI)": 1.90}
{"compound": "O=C1Nc2cc(Cl)ccc2Oc2cc(Oc3ccccc3)ccc21", "log10(TGI)": 1.68}
{"compound": "C[C@@H]1CCC2[C@@H](C)[C@H](O[C@H]3O[C@@H]4O[C@@]5(C)CCC6[C@H](C)CCC([C@H]3C)[C@]64OO5)O[C@@H]3O[C@@]4(C)CCC1[C@@]23OO4 (stereo not given in full)", "log10(TGI)": 1.28}
